# Test system: HCT-116
# measurement-description: Antiproliferative activity against human HCT-116 cells assessed as reduction in cell viability incubated for 48 hrs by MTT assay
# Format: functional, cell-based
# measurement-setup: HCT-116, 48 h
readout-type: IC50 (µM)
Please reply with the bare figure in µM and do not write the unit itself.

CCCCCCCCCCC(CCO)n1cnc2c(OC)ncnc21 (racemic): 7.53
CCCCC(CCO)n1cnc2c(Cl)nc(F)nc21 (racemic): 13.5
CCCCCCC[C@@H](CCO)n1cnc2c(Cl)ncnc21: 10.7
CCCCCCCCCCCC(CCO)n1cnc2c(N(C)C)ncnc21 (racemic): 12
CCCCCCCCC[C@H](CCn1cc(-c2ccccc2)nn1)n1cnc2c(Cl)ncnc21: 8.13
CCCCCCCCCCCC(CCO)n1cnc2c(N)ncnc21 (racemic): 13.3

Prompt line: Quick check: IC50 of CCCCCCCCCC(CCO)n1cnc2c(N(C)C)ncnc21 (racemic) ?
Response line: 9.81

* * *

# Test system: HCT-116
# measurement-description: Antiproliferative activity against human HCT-116 cells assessed as reduction in cell viability incubated for 48 hrs by MTT assay
# Assay type: functional, cell-based
# measurement-setup: HCT-116, 48 h
pIC50: −log10 of the molar value.
readout-type: pIC50

Below are worked cases with known answers.
CCCCCCCCCC(CCOCP(=O)(O)O)n1cnc2c(Cl)ncnc21 (racemic): < 4.30
OCCC(CO)n1cnc2c(Cl)ncnc21 (racemic): < 4.30
CCCCCCC(CCO)n1cnc2c(N)ncnc21 (racemic): < 4.30

Prompt line: Returns the measured pIC50 for the input molecule. Input: CCC(CCO)n1cnc2c(Cl)ncnc21 (racemic)
Response line: < 4.30

Prompt line: What would you report for CCCCCCCCCCCCC(CCO)n1cnc2c(Cl)ncnc21 (racemic) ?
Response line: < 4.30

* * *

// values below are reported IC50
# Test system: HCT-116
# measurement-description: Antiproliferative activity against human HCT-116 cells assessed as reduction in cell viability incubated for 48 hrs by MTT assay
# Assay type: functional, cell-based
# measurement-setup: HCT-116, 48 h

Examples from the recorded data:
CC(C)(C)[Si](C)(C)OCC(CCO)n1cnc2c(Cl)ncnc21 (racemic): > 50 µM
CCCCCCCC(CCO)n1cnc2c(N)ncnc21 (racemic): > 50 µM
CCCCCC(CCO)n1cnc2c(Cl)ncnc21 (racemic): > 50 µM
CCCCCC(CCO)n1cnc2c(Cl)nc(F)nc21 (racemic): 8.66 µM
C=C(CO)C(c1ccccc1)n1cnc2c(Cl)ncnc21 (racemic): 33.3 µM
CCCC(CCO)n1cnc2c(Cl)nc(F)nc21 (racemic): 16.5 µM
CCCCCCCC(CCO)n1cnc2c(Cl)nc(F)nc21 (racemic): 17.6 µM

Now look at this entry.
Prompt line: Consider the molecule CCCCCCCCC(CCO)n1cnc2c(OC)ncnc21 (racemic) and give its measured IC50.
Response line: 12.8 µM
